Target: human recombinant Yes [a.a. 2–543 (end)] (Homo sapiens, UniProt P07947)
Construct: human recombinant Yes [a.a; 2–543 (end)]; purchased BPS Bioscience 40488
Sequence (P07947 2-543): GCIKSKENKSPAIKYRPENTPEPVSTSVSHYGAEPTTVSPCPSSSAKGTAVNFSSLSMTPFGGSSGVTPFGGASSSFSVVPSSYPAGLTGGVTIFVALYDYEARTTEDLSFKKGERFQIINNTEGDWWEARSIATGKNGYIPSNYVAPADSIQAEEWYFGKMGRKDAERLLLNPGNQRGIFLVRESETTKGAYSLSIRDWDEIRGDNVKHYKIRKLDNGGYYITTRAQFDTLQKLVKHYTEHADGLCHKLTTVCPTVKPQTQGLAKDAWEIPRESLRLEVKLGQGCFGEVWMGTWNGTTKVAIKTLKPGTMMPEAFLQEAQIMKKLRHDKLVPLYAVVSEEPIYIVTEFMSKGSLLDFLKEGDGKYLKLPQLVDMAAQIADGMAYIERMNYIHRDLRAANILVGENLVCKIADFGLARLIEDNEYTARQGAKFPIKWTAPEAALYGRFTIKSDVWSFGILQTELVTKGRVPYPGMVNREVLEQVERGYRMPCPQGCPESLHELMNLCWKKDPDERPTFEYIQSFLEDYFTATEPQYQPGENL
Assay: ADP-Glo kinase assay, inhibition rates of Yes phosphorylation activity (first and second screening)
Assay type: biochemical
Conditions: first screening; mean of n = 4 wells; 10 μmol L−1 compound
Property measured: First screening IR (inhibition rate)
Provide the measurement as a number trailed by its unit.

The cases that follow already have their First screening IR (inhibition rate) on record.
Molecule: O=C(Nc1cnc2ccccc2c1)c1ccc(-n2ccc(C(F)(F)F)n2)cc1 [Compound Z815840280]
Recorded value: 9%
--
Molecule: O=C(Nn1cnc2ccccc21)c1cnn(-c2ccccc2F)c1-n1cccc1 [Compound Z339292340]
Recorded value: 11%
--
Molecule: Cc1ccc(-n2c(SCC(=O)Nc3ccc(N4CCOCC4)cc3)nnc2-c2cccnc2)c(C)c1 [Compound Z18666705]
Recorded value: 54%

Data request: Item under review: Cn1cc(/C=N/Nc2ccnc3cc(Cl)ccc23)cn1 [Compound Z65478686] . Reported First screening IR (inhibition rate)?
Data returned: 2%

Data request: Would you mind doing Cc1ccc(Cn2c(=O)/c(=C/c3ccc(N4CCOCC4)c([N+](=O)[O-])c3)s/c2=C/C(=O)C(C)(C)C)cc1 [Compound Z48770507] as well?
Data returned: 31%

Data request: Next molecule up: CCOC(=O)/C=c1\s/c(=C/c2ccc(N3CCCCC3)c([N+](=O)[O-])c2)c(=O)n1CC(=O)N1CCC(C)CC1 [Compound Z48712692]
Data returned: 25%

Data request: Please give the result for COc1ccc(C(N)=O)c(OCc2cc(C)cc(C)c2)c1 [Compound Z165885974] too.
Data returned: 4%

Data request: Input Cl.Fc1ccccc1-c1cc(-c2ccccc2)nc2ccc(Cl)cc12 [Compound Z48955825]
Data returned: -1%

Data request: Now the same for CN(C)c1nc(N)nc(CSCCOc2ccccc2F)n1 [Compound Z197453168]
Data returned: 9%

Data request: Another molecule to check: Clc1ccccc1Cn1ncc2c(N3CCOCC3)ncnc21 [Compound Z1172235408]
Data returned: -4%

Data request: Same question for CC(NC(=O)Cn1nc(-c2ccccc2)ccc1=O)c1nc2ccccc2[nH]1 (stereo not shown) [Compound Z647256318] please.
Data returned: 5%

Data request: Now the molecule Cc1cc(NC(=O)/C=C/c2csc(C)n2)n(CCC#N)n1 [Compound Z826713788]
Data returned: -15%

Data request: Now consider Cc1ccc(S(=O)(=O)CCCS(=O)(=O)N(C)C)c(C)c1 [Compound Z1134191614] .
Data returned: -1%

Data request: // query: N#Cc1ccccc1CSCCNc1cc(=O)n2ccccc2n1 [Compound Z203909940]
Data returned: -8%

====

First screening IR (inhibition rate) by entry:
Biological target: human recombinant Yes [a.a. 2–543 (end)] (Homo sapiens, UniProt P07947)
Construct: human recombinant Yes [a.a; 2–543 (end)]; purchased BPS Bioscience 40488
Test: ADP-Glo kinase assay, inhibition rates of Yes phosphorylation activity (first and second screening)
Type: biochemical
Conditions: first screening; mean of n = 4 wells; 10 μmol L−1 compound
State just the number; it will be interpreted in %.

Compound: CN(C)C(CNC(=O)c1cc(-c2ccccc2)nc2c1cnn2Cc1ccncc1)c1ccccc1 (stereo not drawn)
Unit of measurement: %
First screening IR (inhibition rate): -16
--
Compound: CCc1ccc(-c2cc(-c3ccccc3)c3c(n2)/C(=C\c2ccc(N(C)C)cc2)CCC3)cc1
Unit of measurement: %
First screening IR (inhibition rate): -14
--
Compound: CN(C)c1nc2ccc(NC(=O)c3csc(-c4ccoc4)n3)cc2o1
Unit of measurement: %
First screening IR (inhibition rate): 10

Data request: Reported First screening IR (inhibition rate) for `O=C(NCc1ccc(-n2ccnc2)nc1)c1ccc(-c2ccccc2)cc1` : what is it?
Data returned: 3

Data request: Could you do the same for `COCCNC(=O)CN1CCN(c2nc(-c3cccnc3)nc3scc(-c4ccccc4)c23)CC1` , please?
Data returned: 9

Data request: Now this one: `COc1ccc(-n2cc(-c3ccccc3)c3c(NCCCO)ncnc32)cc1`
Data returned: 1

Data request: And O=C(NC(C1CC1)C1CC1)C1CCCN1c1ncnc2sccc12 (stereo not drawn) ?
Data returned: 6

Data request: Try the compound `CC(C)S(=O)(=O)CCS(=O)(=O)Cc1ccc(Cl)cc1`
Data returned: -14

Data request: Queued: `Cc1ccc(O)c(-c2cc(-c3ccccc3)c3ccccc3n2)c1.Cl`
Data returned: 1

Data request: What do we get for Cn1ccnc1C(Nc1cnn(Cc2ccccc2)c(=O)c1Cl)c1ccccc1 (stereo not drawn) ?
Data returned: 30

Data request: Okay, and `NC(=O)C1CCN(C(=O)CNc2cc(Cl)ccc2Sc2ccc(F)cc2)CC1` ?
Data returned: -9

Data request: Same question for CC(C(=O)N1CCN(S(=O)(=O)c2ccccc2)CC1)N1CCC(C(N)=O)CC1 (stereo not drawn) please.
Data returned: 0

====

Measured First screening IR (inhibition rate) by item
Molecular target: human recombinant Yes [a.a. 2–543 (end)] (Homo sapiens, UniProt P07947)
Construct: human recombinant Yes [a.a; 2–543 (end)]; purchased BPS Bioscience 40488
Assay: ADP-Glo kinase assay, inhibition rates of Yes phosphorylation activity (first and second screening)
Format: biochemical
Conditions: first screening; mean of n = 4 wells; 10 μmol L−1 compound
Your answer is read as %, so omit the unit and give the number.

Compound: CN(CCCc1nc2ccccc2[nH]1)C(=O)c1ccc(O)cc1F
Unit of measurement: %
First screening IR (inhibition rate): 9

Compound: O=C(c1cc(Cc2ccccc2)ccc1O)N1CCN(Cc2ccon2)CC1
Unit of measurement: %
First screening IR (inhibition rate): 21

Compound: CCN(CC)C(=O)CN1CCCN(c2ncnc3c2cnn3C)CC1
Unit of measurement: %
First screening IR (inhibition rate): -4

Compound: Cl.Fc1ccccc1-c1c2c(nc3ccc(Cl)cc13)-c1ccccc1OC2
Unit of measurement: %
First screening IR (inhibition rate): -15

Compound: O=C(CN1CCSc2ccccc21)N1CCN(S(=O)(=O)c2ccc(Cl)s2)CC1
Unit of measurement: %
First screening IR (inhibition rate): -5

Compound: CCOC(=O)c1c(NC(=O)CN2CCN(c3cccc(Cl)c3)CC2)sc(Cc2ccc3c(c2)OCO3)c1C
Unit of measurement: %
First screening IR (inhibition rate): 12

Compound: CC(C)n1ncc2c(C(=O)N3CCN(CC(=O)N4CCCCC4)CC3)cc(-c3ccccc3)nc21
Unit of measurement: %
First screening IR (inhibition rate): -5

Compound: Cc1ccc(C)c(S(=O)(=O)N(CC(=O)Nc2ccc(Oc3ccccc3)cc2)Cc2ccc(F)cc2)c1
Unit of measurement: %
First screening IR (inhibition rate): -6

Next:
Data request: I have this compound here, COc1cc(C(=O)OC(C)C(=O)NC(C)(C#N)C(C)C)ccc1Oc1ccc(Cl)cc1[N+](=O)[O-] (stereo not drawn) , and I need its recorded First screening IR (inhibition rate).
Data returned: 1

====

Molecular target: human recombinant Yes [a.a. 2–543 (end)] (Homo sapiens)
Construct: human recombinant Yes [a.a; 2–543 (end)]; purchased BPS Bioscience 40488
Test: ADP-Glo kinase assay, inhibition rates of Yes phosphorylation activity (first and second screening)
Type: biochemical
Conditions: first screening; mean of n = 4 wells; 10 μmol L−1 compound
Property measured: First screening IR (inhibition rate)

Data request: Look up First screening IR (inhibition rate): `COc1cccc(OCCN2CCN(c3cc(C)nc4c(-c5ccc(F)cc5)c(C(F)(F)F)nn34)CC2)c1`
Data returned: -1%

====

Molecular target: human recombinant Yes [a.a. 2–543 (end)] (Homo sapiens, UniProt P07947)
Construct: human recombinant Yes [a.a; 2–543 (end)]; purchased BPS Bioscience 40488
Assay: ADP-Glo kinase assay, inhibition rates of Yes phosphorylation activity (first and second screening)
Format: biochemical
Details: first screening; mean of n = 4 wells; 10 μmol L−1 compound
Description: All inhibitory assays of the phosphorylation activity of Yes were performed in accordance with the Promega Technical Manual for the ADP-Glo™ Kinase Assay (Fitchburg, WI, USA. Catalog number: V9102). The human recombinant Yes [a.a. […] The screening was conducted in three steps consisting of the first screening, the second screening, and the IC50 determination, as can be illustrated in Fig. 1b. First, we determined the inhibition rates of the 1,991 compounds. […]
Property measured: First screening IR (inhibition rate) (%)
Output spec: scalar in %, unitless text.

Some compounds with known First screening IR (inhibition rate) results, for comparison:
Structure as smiles: Cc1nnc(SCC(=O)c2cc3cc(Cl)ccc3o2)n1C1CC1
Target of assay: human recombinant Yes [a.a. 2–543 (end)] (Homo sapiens, UniProt P07947)
Unit of measurement: %
First screening IR (inhibition rate): 10
--
Structure as smiles: CN(CCCC(=O)O)S(=O)(=O)c1cc(S(C)(=O)=O)ccc1Cl
Target of assay: human recombinant Yes [a.a. 2–543 (end)] (Homo sapiens, UniProt P07947)
Unit of measurement: %
First screening IR (inhibition rate): 44

Data request: I would be grateful if you could share the reported First screening IR (inhibition rate) for `Cl.Oc1ccc(-c2cc(-c3ccccc3)c3cc(Cl)ccc3n2)cc1` .
Data returned: 51
